# test_protocol: log P by HPLC on reversed-phase columns (EEC directive 79/831 Annex V.A8)
# Format: physicochemical
# experimental_setup: acidic range pH 2.7, 0.1% aqueous formic acid/acetonitrile
Entries and their measured log P follow.
readout_kind: log P

- COc1ccc(F)cc1C1=NOC(=O)C1=Cc1c(C)cc(C)cc1C: 4.12
- Cc1cc(C)c(C=C2C(=O)ON=C2c2ccc(C(F)(F)F)cc2)c(C)c1: 4.62
- Cc1cc(C)c(C=C2C(=O)ON=C2c2ccc(OC(C)C)cc2)c(C)c1: 4.70
- Cc1cc(C)c(C=C2C(=O)ON=C2c2cccc(C(F)(F)F)c2)c(C)c1: 4.62
- Cc1cc(C)c(C=C2C(=O)ON=C2c2cc(Cl)cc(Cl)c2)c(C)c1: 5.01
- Cc1cc(C)cc(C2=NOC(=O)C2=Cc2c(C)cccc2C)c1: 4.49
- COc1cccc(C2=NOC(=O)C2=Cc2c(C)cccc2C)c1OC: 3.73
- Cc1cc(C)c(C=C2C(=O)ON=C2c2ccccc2)c(C)c1: 4.01
- Cc1cccc(C)c1C=C1C(=O)ON=C1c1ccccc1OCc1ccccc1: 4.51

Each recorded value in this set is attributed to patent US20120065063A1.
